Reference source for all entries: ChEMBL document CHEMBL3856198

Biological target: Steroid 17-alpha-hydroxylase/17,20 lyase (Rattus norvegicus, UniProt P11715)
Sequence (P11715 whole entry): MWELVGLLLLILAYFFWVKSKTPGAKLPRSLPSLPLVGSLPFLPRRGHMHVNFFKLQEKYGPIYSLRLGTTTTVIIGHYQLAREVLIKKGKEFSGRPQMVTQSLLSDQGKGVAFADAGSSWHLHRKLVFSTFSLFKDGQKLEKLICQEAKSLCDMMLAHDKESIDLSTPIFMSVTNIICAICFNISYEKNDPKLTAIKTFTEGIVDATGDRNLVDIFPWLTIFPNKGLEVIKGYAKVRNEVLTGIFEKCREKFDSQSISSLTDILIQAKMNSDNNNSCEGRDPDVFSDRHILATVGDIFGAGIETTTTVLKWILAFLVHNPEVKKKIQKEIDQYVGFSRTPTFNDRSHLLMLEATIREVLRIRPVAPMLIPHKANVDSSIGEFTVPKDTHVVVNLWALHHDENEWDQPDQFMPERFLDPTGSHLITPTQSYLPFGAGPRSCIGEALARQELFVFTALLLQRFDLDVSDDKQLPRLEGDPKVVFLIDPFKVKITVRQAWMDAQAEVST

>  <MOLECULE SMILES>
C[C@]12CC[C@H](O)CC1=CC[C@@H]1[C@@H]2CC[C@]2(C)C(c3n[nH]cc3C=O)=CC[C@@H]12

>  <IC50 [nM]>
66

$$$$
>  <MOLECULE SMILES>
C[C@]12CC[C@H](O)CC1=CC[C@@H]1[C@@H]2CC[C@]2(C)C(c3n[nH]cc3C#N)=CC[C@@H]12

>  <IC50 [nM]>
92

$$$$
>  <MOLECULE SMILES>
C[C@]12CC[C@H](O)CC1=CC[C@@H]1[C@@H]2CC[C@]2(C)C(c3ccn[nH]3)=CC[C@@H]12

>  <IC50 [nM]>
7.7

$$$$
>  <MOLECULE SMILES>
C[C@]12CC[C@H](O)CC1=CC[C@@H]1[C@@H]2CC[C@]2(C)C(c3n[nH]cc3CO)=CC[C@@H]12

>  <IC50 [nM]>
26

$$$$

====

Attribute: inhibition of growth at 30 µM
assay: Growth inhibition of human MCF7 cells at 30 uM after 72 hrs by MTT assay; type: functional; conditions: MCF7, 72 h, read-out: GI

>  <MOLECULE SMILES>
C[C@]12CC[C@H](O)CC1=CC[C@@H]1[C@@H]2CC[C@]2(C)C(c3nn(-c4ccccc4)cc3C=O)=CC[C@@H]12

>  <QUALIFIER SIGN>
=

>  <inhibition of growth at 30 µM, %>
98.1

$$$$
>  <MOLECULE SMILES>
Cn1cc(C#N)c(C2=CC[C@H]3[C@@H]4CC=C5C[C@@H](O)CC[C@]5(C)[C@H]4CC[C@]23C)n1

>  <QUALIFIER SIGN>
=

>  <inhibition of growth at 30 µM, %>
40.9

$$$$
>  <MOLECULE SMILES>
Cn1cc(C=O)c(C2=CC[C@H]3[C@@H]4CC=C5C[C@@H](O)CC[C@]5(C)[C@H]4CC[C@]23C)n1

>  <QUALIFIER SIGN>
=

>  <inhibition of growth at 30 µM, %>
48.6

$$$$
>  <MOLECULE SMILES>
COc1ccc(-n2cc(C=O)c(C3=CC[C@H]4[C@@H]5CC=C6C[C@@H](OC(C)=O)CC[C@]6(C)[C@H]5CC[C@]34C)n2)cc1

>  <QUALIFIER SIGN>
=

>  <inhibition of growth at 30 µM, %>
77.7

$$$$
>  <MOLECULE SMILES>
CC(=O)O[C@H]1CC[C@@]2(C)C(=CC[C@@H]3[C@@H]2CC[C@]2(C)C(c4nn(-c5ccc(C#N)cc5)cc4C=O)=CC[C@@H]32)C1

>  <QUALIFIER SIGN>
=

>  <inhibition of growth at 30 µM, %>
85.3

$$$$
>  <MOLECULE SMILES>
C[C@]12CC[C@H](O)CC1=CC[C@@H]1[C@@H]2CC[C@]2(C)C(c3n[nH]cc3CO)=CC[C@@H]12

>  <QUALIFIER SIGN>
<

>  <inhibition of growth at 30 µM, %>
20

$$$$
>  <MOLECULE SMILES>
CC(=O)O[C@H]1CC[C@@]2(C)C(=CC[C@@H]3[C@@H]2CC[C@]2(C)C(c4nn(-c5ccc(C)cc5)cc4C=O)=CC[C@@H]32)C1

>  <QUALIFIER SIGN>
=

>  <inhibition of growth at 30 µM, %>
44.4

$$$$
>  <MOLECULE SMILES>
COc1ccc(-n2cc(CO)c(C3=CC[C@H]4[C@@H]5CC=C6C[C@@H](O)CC[C@]6(C)[C@H]5CC[C@]34C)n2)cc1

>  <QUALIFIER SIGN>
=

>  <inhibition of growth at 30 µM, %>
75.5

$$$$
>  <MOLECULE SMILES>
CC(=O)O[C@H]1CC[C@@]2(C)C(=CC[C@@H]3[C@@H]2CC[C@]2(C)C(c4nn(C(C)=O)cc4C#N)=CC[C@@H]32)C1

>  <QUALIFIER SIGN>
=

>  <inhibition of growth at 30 µM, %>
70

$$$$
>  <MOLECULE SMILES>
COc1ccc(-n2cc(C=O)c(C3=CC[C@H]4[C@@H]5CC=C6C[C@@H](O)CC[C@]6(C)[C@H]5CC[C@]34C)n2)cc1

>  <QUALIFIER SIGN>
=

>  <inhibition of growth at 30 µM, %>
98.1

$$$$
>  <MOLECULE SMILES>
C[C@]12CC[C@H](O)CC1=CC[C@@H]1[C@@H]2CC[C@]2(C)C(c3nn(-c4ccc(C#N)cc4)cc3CO)=CC[C@@H]12

>  <QUALIFIER SIGN>
=

>  <inhibition of growth at 30 µM, %>
88.4

$$$$
>  <MOLECULE SMILES>
CC(=O)O[C@H]1CC[C@@]2(C)C(=CC[C@@H]3[C@@H]2CC[C@]2(C)C(c4nn(-c5ccc(Br)cc5)cc4C=O)=CC[C@@H]32)C1

>  <QUALIFIER SIGN>
=

>  <inhibition of growth at 30 µM, %>
60.6

$$$$
>  <MOLECULE SMILES>
C[C@]12CC[C@H](O)CC1=CC[C@@H]1[C@@H]2CC[C@]2(C)C(c3nn(-c4ccc(Br)cc4)cc3C=O)=CC[C@@H]12

>  <QUALIFIER SIGN>
=

>  <inhibition of growth at 30 µM, %>
61

$$$$
>  <MOLECULE SMILES>
C[C@]12CC[C@H](O)CC1=CC[C@@H]1[C@@H]2CC[C@]2(C)C(c3nn(-c4ccc([N+](=O)[O-])cc4)cc3C=O)=CC[C@@H]12

>  <QUALIFIER SIGN>
=

>  <inhibition of growth at 30 µM, %>
75.1

$$$$
>  <MOLECULE SMILES>
C[C@]12CC[C@H](O)CC1=CC[C@@H]1[C@@H]2CC[C@]2(C)C(c3nn(-c4ccc(Br)cc4)cc3CO)=CC[C@@H]12

>  <QUALIFIER SIGN>
=

>  <inhibition of growth at 30 µM, %>
86.9

$$$$
>  <MOLECULE SMILES>
C[C@]12CC[C@H](O)CC1=CC[C@@H]1[C@@H]2CC[C@]2(C)C(c3n[nH]cc3C#N)=CC[C@@H]12

>  <QUALIFIER SIGN>
=

>  <inhibition of growth at 30 µM, %>
63.4

$$$$
>  <MOLECULE SMILES>
Cn1cc(CO)c(C2=CC[C@H]3[C@@H]4CC=C5C[C@@H](O)CC[C@]5(C)[C@H]4CC[C@]23C)n1

>  <QUALIFIER SIGN>
=

>  <inhibition of growth at 30 µM, %>
33.8

$$$$
>  <MOLECULE SMILES>
C[C@]12CC[C@H](O)CC1=CC[C@@H]1[C@@H]2CC[C@]2(C)C(c3nn(-c4ccccc4)cc3CO)=CC[C@@H]12

>  <QUALIFIER SIGN>
=

>  <inhibition of growth at 30 µM, %>
89.8

$$$$
>  <MOLECULE SMILES>
C[C@]12CC[C@H](O)CC1=CC[C@@H]1[C@@H]2CC[C@]2(C)C(c3nn(-c4ccc([N+](=O)[O-])cc4)cc3CO)=CC[C@@H]12

>  <QUALIFIER SIGN>
=

>  <inhibition of growth at 30 µM, %>
87.6

$$$$
>  <MOLECULE SMILES>
C[C@]12CC[C@H](O)CC1=CC[C@@H]1[C@@H]2CC[C@]2(C)C(c3cccnc3)=CC[C@@H]12

>  <QUALIFIER SIGN>
=

>  <inhibition of growth at 30 µM, %>
74.7

$$$$
